- tested-system: BChE (Equus caballus, UniProt P81908)
- Sequence (P81908 whole entry): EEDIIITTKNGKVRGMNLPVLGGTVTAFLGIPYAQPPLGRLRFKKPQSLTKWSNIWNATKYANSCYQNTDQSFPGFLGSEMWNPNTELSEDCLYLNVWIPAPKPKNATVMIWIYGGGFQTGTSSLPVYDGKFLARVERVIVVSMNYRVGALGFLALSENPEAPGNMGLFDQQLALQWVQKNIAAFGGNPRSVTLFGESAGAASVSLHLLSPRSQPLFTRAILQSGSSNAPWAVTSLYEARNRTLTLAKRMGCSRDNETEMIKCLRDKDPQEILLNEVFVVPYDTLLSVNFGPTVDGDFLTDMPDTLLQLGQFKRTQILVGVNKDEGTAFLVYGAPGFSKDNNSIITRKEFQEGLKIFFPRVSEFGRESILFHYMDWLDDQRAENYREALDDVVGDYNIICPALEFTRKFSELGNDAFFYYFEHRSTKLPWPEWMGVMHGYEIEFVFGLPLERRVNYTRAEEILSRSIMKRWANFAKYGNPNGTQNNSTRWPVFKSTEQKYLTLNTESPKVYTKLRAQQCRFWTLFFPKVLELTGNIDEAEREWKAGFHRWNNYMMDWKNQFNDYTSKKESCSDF
- method-notes: biochemical
- Assay type: biochemical
- settings: BChE: IC50 (μM) ± SEM, in vitro, triplicates
measurement-name: IC50

Query block: Look up and report measured IC50 for this entry: Cc1cccc(NC(=O)OCCN(C)C(=O)C(=O)c2c[nH]c3ccccc23)c1 [17a]
Result block: > 50 µM

Query block: Retrieve IC50 measured for Cc1ccccc1NC(=O)OCCN(C)C(=O)C(=O)c1c[nH]c2ccccc12 [17c] and print it.
Result block: > 50 µM

Query block: Using the record for CN(CCOC(=O)Nc1cccc(Cl)c1)C(=O)C(=O)c1c[nH]c2ccccc12 [17d] , state its measured IC50.
Result block: > 50 µM

Query block: Fill in IC50 for record CCc1ccc(NC(=O)OCCN(C)C(=O)C(=O)c2c[nH]c3ccccc23)cc1 [17b]
Result block: > 50 µM

----------
- tested-system: BChE (Equus caballus, UniProt P81908)
- method-notes: biochemical
- Format: biochemical
- settings: in vitro, triplicates; read-out: BChE: IC50 (μM) ± SEM
measurement-name: IC50

Query block: Send back BChE (Equus caballus, UniProt P81908) IC50 of CN(CC(=O)Nc1ccccc1F)C(=O)C(=O)c1c[nH]c2ccccc12 only.
Result block: > 50 µM

Query block: Consider the compound COc1ccc(NC(=O)CN(C)C(=O)C(=O)c2c[nH]c3ccccc23)c(C)c1 tested on BChE (Equus caballus, UniProt P81908); state its IC50.
Result block: > 50 µM

Query block: # return IC50 for COc1ccc(NC(=O)CNC(=O)C(=O)c2c[nH]c3ccccc23)c(OC)c1 [13i] , test system: BChE (Equus caballus, UniProt P81908)
Result block: > 50 µM
